Origin of values: patent US20230373952A1

# Subject of test: Kv1.3 potassium channel (Homo sapiens)
# Construct: expressed in transfected cells
# Sequence (P22001 whole entry): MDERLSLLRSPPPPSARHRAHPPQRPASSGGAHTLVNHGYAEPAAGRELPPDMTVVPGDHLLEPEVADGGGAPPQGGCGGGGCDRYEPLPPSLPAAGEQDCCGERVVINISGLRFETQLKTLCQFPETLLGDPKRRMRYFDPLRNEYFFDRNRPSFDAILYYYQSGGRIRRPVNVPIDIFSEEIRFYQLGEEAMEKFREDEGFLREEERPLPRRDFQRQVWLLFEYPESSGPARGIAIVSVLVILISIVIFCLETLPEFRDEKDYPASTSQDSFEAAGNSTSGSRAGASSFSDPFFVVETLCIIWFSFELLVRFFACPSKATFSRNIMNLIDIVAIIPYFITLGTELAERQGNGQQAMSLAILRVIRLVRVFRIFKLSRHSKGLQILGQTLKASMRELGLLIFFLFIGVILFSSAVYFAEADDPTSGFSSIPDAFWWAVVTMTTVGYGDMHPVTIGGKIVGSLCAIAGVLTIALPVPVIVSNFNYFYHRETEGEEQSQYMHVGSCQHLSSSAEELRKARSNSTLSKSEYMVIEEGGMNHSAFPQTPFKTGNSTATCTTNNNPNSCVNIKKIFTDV
# Assay notes: Kv1.3 potassium channel blocker activity, automated whole-cell patch clamp (Patchliner)
# Format: cell-based
# Condition notes: CHO-K1 cells stably expressing Kv1.3; whole-cell current inhibition, Hill fit; read-out: Kv1.3 IC50
Provide the reported IC50 of each item.

Lookup: Given O=C1CC[C@@H](c2c(O)ccc(Cl)c2Cl)CN1[C@@H]1CCNC1 (single isomer, unassigned) , respond with its IC50.
Found: < 100 nM

Lookup: Return the recorded IC50 value; entry: "N[C@@H]1C(=O)N(CCO)C[C@@H]1c1c(O)ccc(Cl)c1Cl"
Found: < 1000 nM

Lookup: Note IC50 for the compound shown: "C[C@H]1[C@@H](c2c(O)ccc(Cl)c2Cl)CC(=O)N1CCO"
Found: < 30000 nM

Lookup: Please give measured IC50 of the following entry: "NC(=O)CCN1C[C@H](c2c(O)ccc(Cl)c2Cl)CC1=O"
Found: < 100 nM

Lookup: Give IC50 for O=C1C[C@@H](c2c(O)ccc(Cl)c2Cl)CN1[C@H]1C[C@@](O)(CO)C1 (single isomer, unassigned; isomer 3)
Found: < 100 nM

Lookup: Given "O=C1C[C@@H](c2c(O)ccc(Cl)c2Cl)CN1C1CNC1" , respond with its IC50.
Found: < 100 nM

Lookup: Fill in reported IC50 for this entry: O=C1CN[C@H](c2c(O)ccc(Cl)c2Cl)CN1C1CNC1 (single isomer, unassigned; isomer 2)
Found: < 30000 nM

Lookup: Answer with the recorded IC50 for the compound listed here: CC1[C@@H](c2c(O)ccc(Cl)c2Cl)CC(=O)N1CCO (stereo in doubt)
Found: < 10000 nM

Lookup: Please supply the value of reported IC50 for the item "O=C1C[C@@H](c2c(O)ccc(Cl)c2Cl)CN1C1CN(CCO)C1"
Found: < 100 nM

Lookup: Read off the recorded IC50 for O=C1C[C@@H](c2c(O)ccc(Cl)c2Cl)CN1[C@H]1C[C@H](CO)C1 (single isomer, unassigned; isomer 1)
Found: < 100 nM

Lookup: Look up IC50 of "O=C1N[C@@H](c2c(O)ccc(Cl)c2Cl)CN1C[C@H](O)CO" and report it.
Found: < 100 nM

Lookup: Using known records, supply IC50 for O=C1C[C@@H](c2c(O)ccc(Cl)c2Cl)CN1C[C@H]1C[C@H](O)C1 (single isomer, unassigned; isomer 1)
Found: < 100 nM

Lookup: Please list IC50 recorded for the compound O=C1CN[C@@H](c2c(O)ccc(Cl)c2Cl)CN1C1CNC1 (single isomer, unassigned; isomer 1)
Found: < 1000 nM

Lookup: Return IC50 (reported value) for this compound: CC(CO)N1C[C@H](c2c(O)ccc(Cl)c2Cl)CC1=O (single isomer, unassigned; isomer 1)
Found: < 1000 nM

Lookup: Using the record for O=C1N[C@H](c2c(O)ccc(Cl)c2Cl)CCN1[C@@H]1CCNC1 (single isomer, unassigned) , state its measured IC50.
Found: < 1000 nM

Lookup: Using the record for C[C@@H]1C(=O)N(C2CNC2)C[C@@H]1c1c(O)ccc(Cl)c1Cl (single isomer, unassigned; isomer 4) , state its measured IC50.
Found: < 1000 nM

Lookup: Output measured IC50 for this item: O=C1C[C@@H](c2c(O)ccc(Cl)c2Cl)CN1C1CCOC1 (single isomer, unassigned; isomer 2)
Found: < 1000 nM

Lookup: Report IC50 for NC[C@@H](O)CN1C[C@H](c2c(O)ccc(Cl)c2Cl)CC1=O (single isomer, unassigned; isomer 1)
Found: < 100 nM

Lookup: Retrieve IC50 measured for "O=C1C[C@@H](c2c(O)ccc(Cl)c2Cl)CN1c1cccnc1" and print it.
Found: < 1000 nM

Lookup: Retrieve IC50 measured for "C[C@H]1[C@@H](c2c(O)ccc(Cl)c2Cl)CC(=O)N1C1CNC1" and print it.
Found: < 10000 nM

Lookup: # return recorded IC50 for entry O=C1C[C@H](c2c(O)ccc(Cl)c2Cl)CN1[C@@H]1CCNC1 (single isomer, unassigned)
Found: < 100 nM

Lookup: For the compound O=C1C[C@H](c2c(O)ccc(Cl)c2Cl)CCN1[C@@H]1CCNC1 (single isomer, unassigned) , give its measured IC50 value.
Found: < 1000 nM

Lookup: Supply recorded IC50 for "O=C1C[C@@H](c2c(O)ccc(Cl)c2Cl)CN1CCO" here.
Found: < 100 nM

Lookup: Answer with the recorded IC50 of "Cn1cc(N2C[C@H](c3c(O)ccc(Cl)c3Cl)CC2=O)nn1" only.
Found: < 1000 nM

Lookup: Return the recorded IC50 value; entry: "C[C@H](O)CN1C[C@H](c2c(O)ccc(Cl)c2Cl)CC1=O"
Found: < 100 nM

Lookup: For the compound "O=C1C[C@@H](c2c(O)ccc(Cl)c2Cl)CN1C[C@H](O)CO" , report IC50.
Found: < 100 nM

Lookup: // Input: O=C1C[C@@H](c2c(O)ccc(Cl)c2Cl)CN1[C@H]1C[C@@H](CO)C1 (single isomer, unassigned; isomer 2) . Output its IC50 only.
Found: < 100 nM

Lookup: Please give the documented IC50 of C[C@@H]1C(=O)N(C2CNC2)C[C@H]1c1c(O)ccc(Cl)c1Cl (single isomer, unassigned; isomer 2)
Found: < 10000 nM

Lookup: Identify the reported IC50 for the following entry. O=C1C[C@@H](c2c(O)ccc(Cl)c2Cl)CN1[C@@H]1CCNC1 (single isomer, unassigned)
Found: < 1000 nM

Lookup: Look up and state reported IC50 for "C[C@H]1[C@H](c2c(O)ccc(Cl)c2Cl)CC(=O)N1CCCO"
Found: < 100 nM
